B1: POU domain, class 2, transcription factor 2, residues 200 to 269; numbered along this chain, P09086 (parent)
chain: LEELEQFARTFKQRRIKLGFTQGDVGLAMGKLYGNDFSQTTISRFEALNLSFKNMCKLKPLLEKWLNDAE

variants of: B1; test: abundance fitness (aPCA) (normalised: wild type 0, dead -1); higher = more abundant; growth selection in yeast, the domain comes from the species named; details: Homo sapiens
Measured parameter: abundance fitness
One number for each entry.

Worked cases, abundance fitness given:
Residue sequence	Measured parameter	Meas value
LEELEQFARTFKQRRIKLGFTQGDVGLAMGKLKGNDFSQTTISRFEALNLSFKNMCKLKPLLEKWLNDAE [Y33K]	abundance fitness	-0.062
LEELEQFARTFKQRRIKLGFTQGDVGLAMGKLYGNDRSQTTISRFEALNLSFKNMCKLKPLLEKWLNDAE [F37R]	abundance fitness	-0.39
LEELEQFARTFKQRRIKLGFTQGDVGLACGKLYGNDFSQTTISRFEALNLSFKNMCKLKPLLEKWLNDAE [M29C]	abundance fitness	-0.076

Consider the following items and state reported abundance fitness for each.
1. LEELEQFARTFKQRRIKLGFTQGDVGLAMGKLYGNDFSQTTISRFEALYLSFKNMCKLKPLLEKWLNDAE [N49Y]
2. LEELEQFARTFKQRRIKLGFTQGDVGLAMGKLYGNDFSQTTISRFEALNCSFKNMCKLKPLLEKWLNDAE [L50C]

Marked response:
1. -0.249
2. -0.078

Hi, could you look up abundance fitness for each item in my list?
1. LEELEQFARTFKQRRIKLGFTQGDVGLAMGKLYGNDFSQTTISRFEALNLSFKNMCKLNPLLEKWLNDAE [K59N]
2. LEELEQFARTFKQRRIKLGFTQGDVGTAMGKLYGNDFSQTTISRFEALNLSFKNMCKLKPLLEKWLNDAE [L27T]
3. LEELEQFARTFKQRRIKLGFTQGDVGLAMGKLYGNDFSQTTISRFEALNLSFKNMCKLKPLLEKWTNDAE [L66T]
4. LEELEQFARTFKQRRIKLGFTQGDVGLAMGKLYGNDFNQTTISRFEALNLSFKNMCKLKPLLEKWLNDAE [S38N]
5. LEELEQFARTFKQRRIKLGFTQGDVGLAMGKLYGNDFSQTTISRFEALNLSFKNMCKLKPLLEKSLNDAE [W65S]

Marked response:
[-0.435, -0.092, -0.355, 0.044, -0.522]

Numbers sourced from the Human Domainome abundance scans (Beltran et al. 2025).
